The measured values listed here are drawn from the supplement of paper PMC10681739.

Molecular target: ETS1 (UniProt P14921)
Sequence: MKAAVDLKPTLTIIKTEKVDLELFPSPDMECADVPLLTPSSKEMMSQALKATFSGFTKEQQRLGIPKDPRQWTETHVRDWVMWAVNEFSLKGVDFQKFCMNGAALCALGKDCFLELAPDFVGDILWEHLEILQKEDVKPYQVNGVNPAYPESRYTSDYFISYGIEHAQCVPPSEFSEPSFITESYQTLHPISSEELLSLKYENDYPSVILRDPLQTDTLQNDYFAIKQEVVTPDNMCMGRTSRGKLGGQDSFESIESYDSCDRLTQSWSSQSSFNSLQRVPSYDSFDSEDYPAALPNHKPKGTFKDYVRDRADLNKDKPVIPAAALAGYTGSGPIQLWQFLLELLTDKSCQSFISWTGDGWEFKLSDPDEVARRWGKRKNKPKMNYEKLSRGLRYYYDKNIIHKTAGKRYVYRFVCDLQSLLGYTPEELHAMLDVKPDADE
Assay: ETS1 binding intensity (PBM fluorescence), ETS1 alone (arbitrary fluorescence units); higher = stronger binding
Conditions: ETS1 concentration 1 nM; RUNX1 concentration 0 nM
Items are presented alongside their recorded ETS1 binding intensity.

INPUT_SEQUENCE: CAGGCCTGTGATTTCCTCTGAGTGGTTTTCTTGGCC
SYSTEM_TESTED: ETS1 (UniProt P14921)
ETS1 binding intensity: 465
//
INPUT_SEQUENCE: CTGCTAGCGGAAGCAGCCAAGCCCACAGGCTCCAGG
SYSTEM_TESTED: ETS1 (UniProt P14921)
ETS1 binding intensity: 942
//
INPUT_SEQUENCE: ACAGAGCAGGAAGCAGCCCTCACCACAGATGAAGCA
SYSTEM_TESTED: ETS1 (UniProt P14921)
ETS1 binding intensity: 686
//
INPUT_SEQUENCE: GGCTGCAGGAAGTGGGAAGGTGTGGCTTTGAGTCTC
SYSTEM_TESTED: ETS1 (UniProt P14921)
ETS1 binding intensity: 1830
//
INPUT_SEQUENCE: CGCCGGCTCCCGGATGTTGTGGGGATCAGCGCCCGC
SYSTEM_TESTED: ETS1 (UniProt P14921)
ETS1 binding intensity: 3270
//
INPUT_SEQUENCE: GCAACTGAACAGGAAACTAAAAAACCACAACACTTA
SYSTEM_TESTED: ETS1 (UniProt P14921)
ETS1 binding intensity: 1400
//
INPUT_SEQUENCE: GGCTCGGCAAACATCCGGCTCCGCGGTGGAACGGGA
SYSTEM_TESTED: ETS1 (UniProt P14921)
ETS1 binding intensity: 1430
//
INPUT_SEQUENCE: AGCTTGCCGGAAGCTGGTTGTTCGCTGCGGCGACCA
SYSTEM_TESTED: ETS1 (UniProt P14921)
ETS1 binding intensity: 4100
//
INPUT_SEQUENCE: GTGAGCCTGTAAAGGAAATTGAGGTTATGTGGCTCA
SYSTEM_TESTED: ETS1 (UniProt P14921)
ETS1 binding intensity: 981
//
INPUT_SEQUENCE: CACCTGCAGTGAAGAGGATGTGGGCAAAGATTATGC
SYSTEM_TESTED: ETS1 (UniProt P14921)
ETS1 binding intensity: 1350
//
INPUT_SEQUENCE: CAGGCTCGCCACAGGGGAAGTGGTTAGGGCGGGTCC
SYSTEM_TESTED: ETS1 (UniProt P14921)
ETS1 binding intensity: 684
//
INPUT_SEQUENCE: GAGCGCCCACTTCCTGTTTACCACCCAGCCTCTTCG
SYSTEM_TESTED: ETS1 (UniProt P14921)
ETS1 binding intensity: 3670
//
INPUT_SEQUENCE: GGACTTCCTGAAGCCAGATCGGTTTACCACAGTCAG
SYSTEM_TESTED: ETS1 (UniProt P14921)
ETS1 binding intensity: 413
